Assay: ATP cell viability assay (CellTiter-Glo) cytotoxicity
Assay type: cell-based
Conditions: human, THP-1 (monocyte) cells
Reported metric: IC50 at 24 h (µM)
API: value field is a number in µM; no unit string.

Task: What does the record list as IC50 at 24 h for O=C1Nc2ccc(Cl)cc2[C@@](C#CC2CC2)(C(F)(F)F)O1 ?
Result: 29

* * *

Experiment: ATP cell viability assay (CellTiter-Glo) cytotoxicity
Assay type: cell-based
Conditions: human, CEM (lymphocyte) cells
Reported metric: IC50 at 24 h

Task: What does the record list as IC50 at 24 h for O=C1Nc2ccc(Cl)cc2[C@@](C#CC2CC2)(C(F)(F)F)O1 [Aqueous solution, efavirenz] ?
Result: 40 µM
